Biological target: Mitogen-activated protein kinase kinase kinase kinase 1 (Homo sapiens, UniProt Q92918)
Sequence (Q92918 whole entry): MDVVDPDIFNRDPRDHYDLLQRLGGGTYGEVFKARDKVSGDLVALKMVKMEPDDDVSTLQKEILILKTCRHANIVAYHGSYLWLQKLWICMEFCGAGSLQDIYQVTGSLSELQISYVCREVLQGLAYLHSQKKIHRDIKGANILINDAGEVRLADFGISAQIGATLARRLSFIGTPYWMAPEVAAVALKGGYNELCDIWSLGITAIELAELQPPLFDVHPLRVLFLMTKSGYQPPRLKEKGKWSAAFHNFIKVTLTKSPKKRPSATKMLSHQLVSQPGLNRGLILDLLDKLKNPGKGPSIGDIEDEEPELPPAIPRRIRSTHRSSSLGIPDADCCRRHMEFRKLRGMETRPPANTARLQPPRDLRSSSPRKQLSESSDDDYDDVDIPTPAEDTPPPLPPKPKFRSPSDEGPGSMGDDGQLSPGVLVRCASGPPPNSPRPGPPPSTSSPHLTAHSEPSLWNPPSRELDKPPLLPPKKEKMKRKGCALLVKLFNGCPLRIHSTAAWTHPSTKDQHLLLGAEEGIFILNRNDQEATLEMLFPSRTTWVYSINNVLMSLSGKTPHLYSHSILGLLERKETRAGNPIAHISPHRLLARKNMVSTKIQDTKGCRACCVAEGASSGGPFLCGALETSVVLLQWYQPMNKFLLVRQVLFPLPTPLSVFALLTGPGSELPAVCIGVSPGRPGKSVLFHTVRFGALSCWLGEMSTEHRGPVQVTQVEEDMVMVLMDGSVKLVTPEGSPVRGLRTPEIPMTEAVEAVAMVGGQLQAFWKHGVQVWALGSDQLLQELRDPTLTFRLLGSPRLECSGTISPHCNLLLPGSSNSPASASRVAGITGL
Experiment: HPK1-SLP76 TR-FRET ASSAY
pIC50: −log10 of the molar value.
ASSAY ENDPOINT: pIC50

Solved cases (3 shown):
{"columns": ["TEST SMILES", "OBS VALUE"],
 "data": [
  ["Cc1c(-c2c(F)c(N)c3cnc(Nc4cnn(C5CCN(C)CC5)c4)nc3c2Cl)cnc2c1NCCO2", 10.30],
  ["Cc1c(-c2cc3nc(Nc4cnn(C5COC5)c4)ncc3c(N)c2F)cnc2c1NCCO2", 10.30],
  ["Cc1c(-c2cc3nc(Nc4cnn([C@@H]5CCN(C)C5=O)c4)ncc3c(N)c2F)cnc2c1NCCO2", 9.82]
]}

A: CCn1cc(Nc2ncc3c(N)c(F)c(-c4cnc5c(c4C)NCCO5)cc3n2)cn1
B: Cc1c(-c2c(F)c(N)c3cnc(Nc4cnn([C@H]5CCN(C)C5)c4)nc3c2Cl)cnc2c1NCCO2
[ask] Between A and B , which one shows the larger pIC50 value? Return value: the label identifying the chosen record.
[reply] A
(A: 10.10, B: 9.74)

---

Target: Mitogen-activated protein kinase kinase kinase kinase 1 (Homo sapiens, UniProt Q92918)
Test: HPK1-SLP76 TR-FRET ASSAY
ASSAY ENDPOINT: IC50 (nM)

Some entries whose results are on file:
{"columns": ["MOLECULE", "RESULT UNITS", "OBS VALUE"],
 "data": [
  ["Cc1cnsc1Nc1ncc2c(N)c(F)c(-c3cnc4c(c3C)NCCO4)cc2n1", "nM", 0.07],
  ["Cc1c(-c2cc3nc(Nc4cnn(C5(C)CC5)c4)ncc3c(N)c2F)cnc2c1NCCO2", "nM", 0.09],
  ["Cc1c(-c2c(F)c(N)c3cnc(Nc4cnn([C@@H]5CCN(C)C5)c4)nc3c2Cl)cnc2c1NCCO2", "nM", 0.17]
]}

P: CNC(=O)C12CC(n3cc(Nc4ncc5c(N)c(F)c(-c6cnc7c(c6C)NCCO7)cc5n4)cn3)(C1)C2
Q: Cc1c(-c2cc3nc(Nc4cnn(C)c4C)ncc3c(N)c2F)cnc2c1NCCO2
[ask] Smaller IC50 value, P vs Q ? Mark your answer with the label of the selected entry.
[reply] Q
(Q: 0.05 nM, P: 0.09 nM)

---

Target: Mitogen-activated protein kinase kinase kinase kinase 1 (Homo sapiens)
Test: HPK1-SLP76 TR-FRET ASSAY
pIC50: −log10 of the molar value.
ASSAY ENDPOINT: pIC50

Solved entries (count: 2):
{"columns": ["COMPOUND", "pIC50"],
 "data": [
  ["Cc1c(-c2cc3nc(Nc4cnn([C@H]5CCN(C)C5=O)c4)ncc3c(N)c2F)cnc2c1NCCO2 [WO2022098807, Example 2-21]", 9.46],
  ["Cc1c(-c2c(F)c(N)c3cnc(Nc4cnn(C5CC5)c4C)nc3c2Cl)cnc2c1NCCO2 [WO2022098807, Example 2-45]", 9.74]
]}

1: Cc1c(-c2ccc3cnc(Nc4cnn(C5CC6(C5)CC(C5(C)COC5)C6)c4)nc3c2)cnc2c1NCCO2 (stereo not drawn) [WO2022098807, Example 1-2]
2: Cc1c(-c2cc3nc(Nc4cnn(C5CCNCC5)c4)ncc3c(N)c2F)cnc2c1NCCO2 [WO2022098807, Example 2-11]
3: Cc1c(-c2ccc3cnc(Nc4cc5n(n4)CCN(C(C)(C)O)C(=O)C5)nc3c2)cnc2c1NCCO2 [WO2022098807, Example 1-8]
[ask] Give the ascending ranking of the items by reported pIC50. Provide the ranking by listing each label in its place in the requested order.
[reply] 3, 1, 2

The origin of these recorded values is BindingDB's records for patent WO2022098807.
